- TARGET_UNDER_TEST: OXA-48 (Class D beta-lactamase) (Klebsiella pneumoniae, UniProt Q6XEC0)
- Sequence (Q6XEC0 whole entry, looked up, species assumed): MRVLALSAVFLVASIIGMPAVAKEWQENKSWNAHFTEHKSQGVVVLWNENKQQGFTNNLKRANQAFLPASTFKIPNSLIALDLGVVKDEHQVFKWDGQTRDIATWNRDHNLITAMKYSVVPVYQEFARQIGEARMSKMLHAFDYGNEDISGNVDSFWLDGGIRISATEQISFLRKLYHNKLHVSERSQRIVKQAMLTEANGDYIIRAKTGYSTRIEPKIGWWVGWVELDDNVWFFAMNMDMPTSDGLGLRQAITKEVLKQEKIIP
- ASSAY_METHOD_TEXT: Inhibition of beta-lactamase enzymes (nitrocefin hydrolysis), OXA-48
- STUDY_CONDITIONS: read-out: Class D OXA-48 60 min IC50, nitrocefin 100 μM
pIC50: −log10 of the molar value. Structures can show the parent of a compound that is named as a salt.
Each entry gets condition not met if its pIC50 stays under 6, and condition met if its pIC50 is 6 or above.

Given CC1=C[C@@H]2CN(C(=O)N2O[C@@H](F)C(=O)O)[C@@H]1C(=O)NCC[C@@H]1CCC(=O)N1 [Example 73, lithium salt] , state whether its pIC50 is at least 6. condition met

Given CC1=C[C@@H]2CN(C(=O)N2O[C@@H](F)C(=O)O)[C@@H]1C(=O)NOCC1CC1 [Example 70, lithium salt] , state whether its pIC50 is at least 6. condition met

Given NC(=O)[C@@H]1CC[C@@H]2CN1C(=O)N2O[C@H](F)C(=O)O [Comparator 98, reference compound] , state whether its pIC50 is at least 6. condition not met

Given CC1=C[C@@H]2CN(C(=O)N2O[C@@H](F)C(=O)O)[C@@H]1C(=O)NCCCS(N)(=O)=O [Example 74, lithium salt] , state whether its pIC50 is at least 6. condition met

Given CC1=C[C@@H]2CN(C(=O)N2O[C@@H](F)C(=O)O)[C@@H]1C(=O)NOC[C@@H]1CC(F)(F)CN1 [Example 63, TFA salt] , state whether its pIC50 is at least 6. condition met

Given CC1=C[C@@H]2CN(C(=O)N2OC(C)(F)C(=O)O)[C@@H]1C(N)=O (mixture of isomers) [Example 11, lithium salt] , state whether its pIC50 is at least 6. condition not met

* * *

- ASSAY_METHOD_TEXT: Stability/conversion of esters in human intestinal S9
- Type: in vitro ADME
- STUDY_CONDITIONS: intestinal S9 (without PMSF), pH 7.4, read-out: T1/2 Human Intestinal S9
Structures can show the parent of a compound that is named as a salt.
READOUT_LABEL: half-life at 10 μM (min)
Entry rule: numbers only, all in min.

Need half-life at 10 μM, item CCCOC(=O)[C@@H](F)ON1C(=O)N2C[C@H]1C=C(C)[C@H]2C(N)=O [Example 48] 42

Need half-life at 10 μM, item CCOC(=O)[C@H](F)ON1C(=O)N2C[C@H]1C=C(C)[C@H]2C(=O)NOC[C@@H]1CCCN1 [Example 60, TFA salt] 22

Need half-life at 10 μM, item CCCCOC(=O)[C@@H](F)ON1C(=O)N2C[C@H]1C=C(C)[C@H]2C(N)=O [Example 50] 73

Need half-life at 10 μM, item CCCCCCOC(=O)[C@@H](F)ON1C(=O)N2C[C@H]1C=C(C)[C@H]2C(N)=O [Example 52] 5.7

Need half-life at 10 μM, item CCOC(=O)CON1C(=O)N2C[C@H]1C(C)=C[C@H]2C(N)=O [Example 92] 193

Need half-life at 10 μM, item CCOC(=O)C(F)(F)ON1C(=O)N2C[C@H]1C=C(C)[C@H]2C(N)=O [Example 7] 2.4

Need half-life at 10 μM, item COCCOC(=O)[C@@H](F)ON1C(=O)N2C[C@H]1C=C(C)[C@H]2C(N)=O [Example 18] 15

Need half-life at 10 μM, item CCOC(=O)CON1C(=O)N2C[C@H]1C=C(C)[C@H]2C(N)=O [Example 9] 17.8

Need half-life at 10 μM, item CCCCCOC(=O)[C@@H](F)ON1C(=O)N2C[C@H]1C=C(C)[C@H]2C(N)=O [Example 51] 1.5

Need half-life at 10 μM, item CC1=C[C@@H]2CN(C(=O)N2O[C@H](F)C(=O)OC(C)C)[C@@H]1C(N)=O [Example 12] 132

Need half-life at 10 μM, item C=CCOC(=O)[C@@H](F)ON1C(=O)N2C[C@H]1C=C(C)[C@H]2C(N)=O [Example 47] 8.2

Need half-life at 10 μM, item CC1=C[C@@H]2CN(C(=O)N2O[C@@H](F)C(=O)OC(C)C)[C@@H]1C(N)=O [Example 13] 44

Need half-life at 10 μM, item CC1=C[C@@H]2CN(C(=O)N2O[C@H](F)C(=O)OCC(C)C)[C@@H]1C(N)=O [Example 49] 32

Need half-life at 10 μM, item CC1=C[C@@H](C(N)=O)N2C[C@@H]1N(OCC(=O)OC(C)C)C2=O [Example 96] 1480

Need half-life at 10 μM, item CCOC(=O)[C@@H](F)ON1C(=O)N2C[C@H]1C=C(C)[C@H]2C(=O)NCO [Example 86] 36

Need half-life at 10 μM, item CCOC(=O)C(F)(F)ON1C(=O)N2C[C@H]1C(C)=C[C@H]2C(N)=O [Example 90] 1

Need half-life at 10 μM, item CCCCCCCCOC(=O)[C@@H](F)ON1C(=O)N2C[C@H]1C=C(C)[C@H]2C(N)=O [Example 45] 2

Need half-life at 10 μM, item CCOC(=O)[C@H](F)ON1C(=O)N2C[C@H]1C=C(C)[C@H]2C(=O)NCO [Example 85] 20

* * *

- ASSAY_METHOD_TEXT: Stability/conversion of esters in human liver S9
- Format: in vitro ADME
- STUDY_CONDITIONS: s9, pH 7.4, read-out: T1/2 Human Liver S9
READOUT_LABEL: half-life at 10 μM (min)
Entry rule: numbers only, all in min.

Need half-life at 10 μM, item CC1=C[C@@H](C(N)=O)N2C[C@@H]1N(O[C@@H](F)C(=O)OC(C)C)C2=O 8.5

Need half-life at 10 μM, item CCOC(=O)[C@H](F)ON1C(=O)N2C[C@H]1C(C)=C[C@H]2C(N)=O 2.4

Need half-life at 10 μM, item CC1=C[C@@H](C(N)=O)N2C[C@@H]1N(O[C@H](F)C(=O)OC(C)C)C2=O 39

Need half-life at 10 μM, item CCOC(=O)[C@H](F)ON1C(=O)N2C[C@H]1C=C(C)[C@H]2C(N)=O 1.9

* * *

- ASSAY_METHOD_TEXT: Stability/conversion of esters in human intestinal S9
- Type: in vitro ADME
- STUDY_CONDITIONS: s9, pH 7.4, read-out: T1/2 Human Intestinal S9
Please respond with reported half-life at 10 μM for every item in the list.
Remember to follow the number with its unit.

Need half-life at 10 μM, item CC[C@H](C)OC(=O)[C@@H](F)ON1C(=O)N2C[C@H]1C=C(C)[C@H]2C(N)=O [Example 20] 40 min

Need half-life at 10 μM, item CCOC(=O)[C@H](F)ON1C(=O)N2C[C@H]1C=C(C)[C@H]2C(N)=O [Example 2] 21 min

Need half-life at 10 μM, item CC[C@@H](C)OC(=O)[C@@H](F)ON1C(=O)N2C[C@H]1C=C(C)[C@H]2C(N)=O [Example 22] 43 min

Need half-life at 10 μM, item CC1=C[C@@H]2CN(C(=O)N2O[C@H](F)C(=O)OCc2ccccc2)[C@@H]1C(N)=O [Example 54] 5 min

Need half-life at 10 μM, item CCOC(=O)[C@H](F)ON1C(=O)N2C[C@H]1C(C)=C[C@H]2C(N)=O [Example 32] 6.9 min

Need half-life at 10 μM, item CC1=C[C@@H](C(N)=O)N2C[C@@H]1N(O[C@H](F)C(=O)OC(C)C)C2=O [Example 35] 163 min

Need half-life at 10 μM, item CCOC(=O)[C@@H](F)ON1C(=O)N2C[C@H]1C(C)=C[C@H]2C#N [Example 94] 10.6 min

Need half-life at 10 μM, item CCOC(=O)[C@@H](F)ON1C(=O)N2C[C@H]1C=C(C)[C@H]2C(N)=O [Example 1] 38 min

Need half-life at 10 μM, item CCOC(=O)[C@@H](F)ON1C(=O)N2C[C@H]1C(C)=C[C@H]2C(N)=O [Example 31] 35 min

Need half-life at 10 μM, item CC1=C[C@@H](C(N)=O)N2C[C@@H]1N(O[C@@H](F)C(=O)OC(C)C)C2=O [Example 36] 36 min

Need half-life at 10 μM, item CCC(CC)OC(=O)[C@@H](F)ON1C(=O)N2C[C@H]1C=C(C)[C@H]2C(N)=O [Example 24] 34 min

* * *

- ASSAY_METHOD_TEXT: Stability/conversion of esters in rat intestinal S9
- Assay type: in vitro ADME
- STUDY_CONDITIONS: s9, pH 7.4, read-out: T1/2 Rat Intestinal S9
READOUT_LABEL: log10 of half-life at 10 μM (log10 of the value in min)
Heads up: the numbers are on a log10 scale; they represent half-life at 10 μM in min.

Need log10 of half-life at 10 μM, item CC1=C[C@@H](C(N)=O)N2C[C@@H]1N(O[C@H](F)C(=O)OC(C)C)C2=O [Example 35] 2.38

Need log10 of half-life at 10 μM, item CCOC(=O)[C@H](F)ON1C(=O)N2C[C@H]1C=C(C)[C@H]2C(N)=O [Example 2] 1.38

Need log10 of half-life at 10 μM, item CCOC(=O)[C@H](F)ON1C(=O)N2C[C@H]1C(C)=C[C@H]2C(N)=O [Example 32] 1.26

Need log10 of half-life at 10 μM, item CC1=C[C@@H]2CN(C(=O)N2O[C@H](F)C(=O)OCc2ccccc2)[C@@H]1C(N)=O [Example 54] 1.28

Need log10 of half-life at 10 μM, item CCOC(=O)[C@@H](F)ON1C(=O)N2C[C@H]1C(C)=C[C@H]2C#N [Example 94] 1.41

Need log10 of half-life at 10 μM, item CCOC(=O)[C@@H](F)ON1C(=O)N2C[C@H]1C(C)=C[C@H]2C(N)=O [Example 31] 1.62
